Let's look at some compounds and their measured GI50.
Test system: HCC827-YVMA cells (human ERBB2 exon20 insertion mutant A775_G776ins YVMA)
Test: Cell growth inhibition (CellTiter-Glo, 3 days) in HCC827-YVMA
Format: cell-based
Settings: 72 h, 3 days after administration

For orientation, consider the following solved cases.
C=CC(=O)N1CCC(Nc2cc3c(Nc4ccc(Oc5ccnc(-c6ccccc6)c5)cc4F)ncnc3cc2OC)CC1
< 30 nM
C=CC(=O)N1CCC(Nc2cc3c(Nc4ccc(Oc5ccnc(N6CCC(O)C(F)(F)C6)c5)cc4F)ncnc3cc2OC)CC1 (stereo not shown)
< 30 nM
C=CC(=O)N1CCC(Nc2cc3c(Nc4ccc(Oc5ccnc(NC(C)(C)C)c5)cc4F)ncnc3cc2OC)CC1
< 30 nM

stdin: Dear colleague, I am looking for the recorded GI50 of the following compound: [2H]C([2H])([2H])Oc1cc2ncnc(Nc3ccc(Oc4nc(-c5ccc(C)nc5)cs4)cc3F)c2cc1NC1CCN(C(=O)C=C)CC1
stdout: 30 to 60 nM

====

GI50 tested on A431 cells: recorded values

Some solved cases for reference:
C=CC(=O)N1CCC(Nc2cc3c(Nc4ccc(Oc5ccn(-c6cnc(OC)c(F)c6)n5)cc4F)ncnc3cc2OC)CC1
100 to 300 nM
C=CC(=O)N1CCC(Nc2cc3c(Nc4ccc(Oc5ccnc(N6CCC[C@@H]6C)c5)cc4F)ncnc3cc2OC)CC1
600 to 1000 nM
C=CC(=O)N1CCC(Nc2cc3c(Nc4ccc(Oc5ccnc(N6CCC(C)(C#N)C6)c5)cc4F)ncnc3cc2OC)CC1 (stereo not drawn)
600 to 1000 nM
C=CC(=O)N1CCC(Nc2cc3c(Nc4ccc(Oc5nc(-c6ccc(OC)nn6)cs5)cc4F)ncnc3cc2OC)CC1
< 30 nM
C=CC(=O)N1CCC(Nc2cc3c(Nc4ccc(Oc5ccnc(N6C[C@@H](F)[C@@H](F)C6)c5)cc4F)ncnc3cc2OC)CC1
300 to 600 nM
C=CC(=O)N1CCC(Oc2cc3c(Nc4ccc(Oc5ccnc(N6C[C@@H](C)O[C@@H](C)C6)c5)cc4F)ncnc3cc2OC)CC1
≥ 1000 nM

Now consider a different molecule.
stdin: # returns recorded GI50 (system: A431 cells) for C=CC(=O)N1CCC(Nc2cc3c(Nc4ccc(Oc5ccnc(N6CC(OC)C6)c5)cc4F)ncnc3cc2OC)CC1
stdout: 100 to 300 nM

====

Test system: HCC827-YVMA cells (human ERBB2 exon20 insertion mutant A775_G776ins YVMA)
Experiment: Cell growth inhibition (CellTiter-Glo, 3 days) in HCC827-YVMA
Type: cell-based
Conditions: 72 h, 3 days after administration
Recorded GI50, one value per entry.

Worked examples follow.
C=CC(=O)N1CCC(Nc2cc3c(Nc4ccc(Oc5ccnc(N6CCCOCC6)c5)cc4F)ncnc3cc2OC)CC1
< 30 nM
C=C(F)C(=O)N1CCC(Nc2cc3c(Nc4ccc(Oc5ccn(-c6ccc(C)nc6)n5)cc4F)ncnc3cc2OC)CC1
≥ 1000 nM
C=CC(=O)N1CCC(Nc2cc3c(Nc4ccc(Oc5ccnc(-c6ccc(C)nc6)c5)cc4F)ncnc3cc2OC)CC1
60 to 100 nM
C=CC(=O)N1CCC(Nc2cc3c(Nc4ccc(Oc5ccnc(N(C)C)c5)cc4F)ncnc3cc2OC)CC1
< 30 nM
C=CC(=O)N1CCC(Nc2cc3c(Nc4ccc(Oc5nc(-c6ccc(C)nc6)cs5)cc4F)ncnc3cc2OC)CC1
300 to 600 nM
C=CC(=O)N1CCC(Nc2cc3c(Nc4ccc(Oc5ccnc(N6CCCCC6)c5)cc4F)ncnc3cc2OC)CC1
100 to 300 nM

stdin: Which measured GI50 value corresponds to C=CC(=O)N1CCC(Nc2cc3c(Nc4ccc(Oc5cc(N6C[C@@H](C)O[C@@H](C)C6)ncc5Cl)cc4F)ncnc3cc2OC)CC1 ?
stdout: 100 to 300 nM

====

The following are reported GI50 results, target or system A431 cells.

Answered examples (3):
C=CC(=O)N1CCC(Nc2cc3c(Nc4ccc(Oc5ccnc(N6CC(O)C6)c5)cc4F)ncnc3cc2OC)CC1 [Example 139]
300 to 600 nM
C=CC(=O)N1CCC(Nc2cc3c(Nc4ccc(Oc5ccnc(N6CCCOCC6)c5)cc4F)ncnc3cc2OC)CC1 [Example 106]
≥ 1000 nM
C=CC(=O)N1CCC(Nc2cc3c(Nc4ccc(Oc5ccnc(N6CCO[C@H](C)C6)c5)cc4F)ncnc3cc2OC)CC1 [Example 133]
600 to 1000 nM

// below: GI50 requested for another compound
stdin: Enter reported GI50 observed with A431 cells for C=CC(=O)N1CCC(Nc2cc3c(Nc4ccc(Oc5ccnc(C(=O)NC(C)(C)C)c5)cc4F)ncnc3cc2OC)CC1 [Compound 167]
stdout: 600 to 1000 nM

====

Reported GI50 is given for each of the following compounds.
Test system: HCC827-YVMA cells (human ERBB2 exon20 insertion mutant A775_G776ins YVMA)
Experiment: Cell growth inhibition (CellTiter-Glo, 3 days) in HCC827-YVMA
Format: cell-based
Details: 72 h, 3 days after administration

C=CC(=O)N1CCC(Nc2cc3c(Nc4ccc(Oc5ccnc(-c6ccc(C)cc6)c5)cc4F)ncnc3cc2OC)CC1 [Example 235]
0.06 to 0.1 µM
C=CC(=O)N1CCC(Nc2cc3c(Nc4ccc(Oc5ccn(-c6cnc(C)c(F)c6)n5)c(F)c4)ncnc3cc2OC)CC1 [Example 86]
0.03 to 0.06 µM
C=CC(=O)N1CCC(Nc2cc3c(Nc4ccc(Oc5ccnc(N6C[C@@H]7OCCO[C@@H]7C6)n5)cc4F)ncnc3cc2OC)CC1 [Example 257]
< 0.03 µM
C=CC(=O)N1CCC(Nc2cc3c(Nc4ccc(Oc5cc(-c6nc(C)no6)ccn5)cc4F)ncnc3cc2OC)CC1 [Compound 44]
< 0.03 µM
C=CC(=O)N1CCC(Nc2cc3c(Nc4ccc(Oc5ccnc(N6CCC(O)C(C)(C)C6)c5)cc4F)ncnc3cc2OC)CC1 (stereo not drawn) [Example 171]
0.03 to 0.06 µM

stdin: # query: GI50 of entry C=CC(=O)N1CCC(Nc2cc3c(Nc4ccc(Oc5ccn(-c6ccc(N(C)C)nn6)n5)cc4F)ncnc3cc2OC)CC1 [Example 48]
stdout: 0.03 to 0.06 µM

stdin: Form field: reported GI50 of C=CC(=O)N1CCC(Nc2cc3c(Nc4ccc(Oc5ccnc(-c6cccc(C)c6)c5)cc4F)ncnc3cc2OC)CC1 [Example 234]
stdout: < 0.03 µM

stdin: So what's the measured GI50 for this one? C=CC(=O)N1CCC(Nc2cc3c(Nc4ccc(Oc5ccnc(-c6ccccn6)c5)cc4F)ncnc3cc2OC)CC1 [Example 236]
stdout: < 0.03 µM

stdin: Quick check: GI50 of C=CC(=O)N1CCC(Nc2cc3c(Nc4ccc(Oc5ccnc(N6CC(C)(O)C6)c5)cc4F)ncnc3cc2OC)CC1 [Example 203] ?
stdout: < 0.03 µM

====

Test system: HCC827-YVMA cells (human ERBB2 exon20 insertion mutant A775_G776ins YVMA)
Experiment: Cell growth inhibition (CellTiter-Glo, 3 days) in HCC827-YVMA
Format: cell-based
Conditions: 72 h, 3 days after administration
Experimental: 1. Preparation of HCC827-SVD, HCC827-ASV and HCC827-YVMA Cell Lines […] HCC827(ATCC), HCC827-SVD, HCC827-ASV, HCC827-YVMA were seeded in 96-well plates at 5000 cells/well in 90 μl of RPMI growth medium containing 10% FBS and 1% Penicillin Streptomycin. […] The plates were then incubated at room temperature for 10 minutes and luminescence was recorded by EnSpire plate reader (PerkinElmer).
Measured GI50 of individual entries

Field: example entries. Status: answers known.
C=CC(=O)N1CCC(Nc2cc3c(Nc4ccc(Oc5ccnc(N6CC(OC(C)C)C6)c5)cc4F)ncnc3cc2OC)CC1 [Example 148]
30 to 60 nM
C=CC(=O)N1CCC(Nc2cc3c(Nc4ccc(Oc5ccnc(N6CC(N(C)C)C6)c5)cc4F)ncnc3cc2OC)CC1 [Example 147]
60 to 100 nM
C=CC(=O)N1CCC(Nc2cc3c(Nc4ccc(Oc5ccnc(N6CC7(CC(O)C7)C6)c5)cc4F)ncnc3cc2OC)CC1 [Example 175]
30 to 60 nM
C=CC(=O)N1CCC(Nc2cc3c(Nc4ccc(Oc5ccnc(N6CCC[C@@H](OC)C6)c5)cc4)ncnc3cc2OC)CC1 [Example 230]
< 30 nM
C=CC(=O)N1CCC(Nc2cc3c(Nc4ccc(Oc5ccn(-c6ccc(OC)cn6)n5)cc4F)ncnc3cc2OC)CC1 [Example 59]
30 to 60 nM
C=CC(=O)N1CCC(Nc2cc3c(Nc4ccc(Oc5ccnc(N6CC7CCC(C6)O7)c5)cc4F)ncnc3cc2OC)CC1 [Example 130]
30 to 60 nM
C=CC(=O)N1CCC(Nc2cc3c(Nc4ccc(Oc5ccnc(N6CCC(C(F)(F)F)C6)c5)cc4F)ncnc3cc2OC)CC1 (stereo not drawn) [Compound 150]
< 30 nM
C=CC(=O)N1CCC(Nc2cc3c(Nc4ccc(Oc5ccnc(-n6cc(C)cn6)c5)cc4F)ncnc3cc2OC)CC1 [Compound 232]
< 30 nM
C=CC(=O)N1CCC(Nc2cc3c(Nc4ccc(Oc5ccn(-c6cnc(C)c(Cl)c6)n5)cc4F)ncnc3cc2OC)CC1 [Compound 10]
< 30 nM
C=CC(=O)N1CCC(Nc2cc3c(Nc4ccc(Oc5ccn(-c6ccc(C)c(F)n6)n5)cc4F)ncnc3cc2OC)CC1 [Example 93]
30 to 60 nM

stdin: Recorded GI50 of C=CC(=O)N1CCC(Nc2cc3c(Nc4ccc(Oc5ccnc(-c6nc(C)cs6)c5)cc4F)ncnc3cc2OC)CC1 [Example 98] , please.
stdout: < 30 nM

stdin: What value of measured GI50 is listed for C=CC(=O)N1CCC(Nc2cc3c(Nc4ccc(Oc5ccn(-c6cc(OC)ncn6)n5)cc4F)ncnc3cc2OC)CC1 [Example 30] ?
stdout: < 30 nM

stdin: Data request, read-out GI50, for C=CC(=O)N1CCC(Nc2cc3c(Nc4ccc(Oc5ccnc(N6CC[C@H](OC)C6)c5)cc4F)ncnc3cc2OC)CC1 [Example 115]
stdout: 100 to 300 nM

stdin: Reported GI50 for C=CC(=O)N1CC[C@H](Nc2cc3c(Nc4ccc(Oc5ccn(-c6cnc(OC)nc6)n5)cc4F)ncnc3cc2OC)C1 [Compound 8] : what is it?
stdout: 30 to 60 nM

stdin: Please report the recorded GI50 for C=CC(=O)N1CCC(Nc2cc3c(Nc4ccc(Oc5ccnc(N6CCC(N)CC6)c5)cc4F)ncnc3cc2OC)CC1 [Example 178] .
stdout: 300 to 600 nM

stdin: What value of measured GI50 is listed for C=CC(=O)N1CCC(Nc2cc3c(Nc4ccc(Oc5ccnc(N6CCCC(F)(F)C6)c5)cc4F)ncnc3cc2OC)CC1 [Example 219] ?
stdout: < 30 nM

stdin: Consider the molecule shown here: C=CC(=O)N1CCC(Nc2cc3c(Nc4ccc(Oc5ccnc(-c6nc(C)sc6C)c5)cc4F)ncnc3cc2OC)CC1 [Example 177] What is its recorded GI50?
stdout: < 30 nM

stdin: Quick one: GI50 for C=CC(=O)N1CCC(Nc2cc3c(Nc4ccc(Oc5ccn(-c6cnc(C)cc6C)n5)cc4F)ncnc3cc2OC)CC1 [Example 37] ?
stdout: < 30 nM

stdin: Recorded GI50 of C=CC(=O)N1CCC(Nc2cc3c(Nc4ccc(Oc5cc(-c6ccc(C)nc6)ccn5)cc4F)ncnc3cc2OC)CC1 [Compound 46] , please.
stdout: < 30 nM

stdin: Consider the molecule C=CC(=O)N1CCC(Nc2cc3c(Nc4ccc(Oc5ccnc(N6C[C@@H](OC)[C@H](OC)C6)c5)cc4F)ncnc3cc2OC)CC1 [Example 255] and give its measured GI50.
stdout: < 30 nM

stdin: May I ask what GI50 has been recorded for C=CC(=O)N1CCC(Nc2cc3c(Nc4ccc(Oc5ccnc(N6CCNCC6)c5)cc4F)ncnc3cc2OC)CC1 [Example 123] ?
stdout: 600 to 1000 nM

stdin: GET /values?readout=GI50&item= C=CC(=O)N1CCC(Nc2cc3c(Nc4ccc(Oc5ccnc(NC6CC6)c5)cc4F)ncnc3cc2OC)CC1 [Example 244]
stdout: < 30 nM
